# assayedSystem: Urease (Canavalia ensiformis) (UniProt P07374)
# Sequence (P07374 whole entry, looked up): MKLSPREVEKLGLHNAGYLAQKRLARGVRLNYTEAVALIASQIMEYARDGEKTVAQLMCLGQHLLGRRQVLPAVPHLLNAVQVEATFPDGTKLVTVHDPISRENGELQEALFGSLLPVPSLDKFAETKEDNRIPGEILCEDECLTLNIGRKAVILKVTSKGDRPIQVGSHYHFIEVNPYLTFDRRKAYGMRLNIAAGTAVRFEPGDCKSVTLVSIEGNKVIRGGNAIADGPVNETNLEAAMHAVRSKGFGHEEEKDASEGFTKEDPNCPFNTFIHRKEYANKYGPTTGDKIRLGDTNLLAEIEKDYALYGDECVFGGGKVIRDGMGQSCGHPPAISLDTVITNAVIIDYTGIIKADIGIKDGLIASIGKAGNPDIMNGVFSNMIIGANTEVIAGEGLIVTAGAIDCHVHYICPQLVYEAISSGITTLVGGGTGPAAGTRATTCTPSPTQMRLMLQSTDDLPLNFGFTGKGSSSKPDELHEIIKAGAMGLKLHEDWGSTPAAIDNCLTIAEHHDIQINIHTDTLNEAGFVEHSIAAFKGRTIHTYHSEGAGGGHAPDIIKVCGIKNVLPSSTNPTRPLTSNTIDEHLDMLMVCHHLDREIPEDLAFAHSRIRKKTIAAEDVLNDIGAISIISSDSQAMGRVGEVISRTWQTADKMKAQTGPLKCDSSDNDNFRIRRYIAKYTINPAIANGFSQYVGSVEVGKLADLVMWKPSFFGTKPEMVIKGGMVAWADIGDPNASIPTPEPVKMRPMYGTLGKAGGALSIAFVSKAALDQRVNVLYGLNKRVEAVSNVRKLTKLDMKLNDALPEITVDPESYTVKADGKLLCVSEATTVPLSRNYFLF
# assay: Inhibition of jack bean urease assessed as reduction in ammonia production at 0.5 mM using urea as substrate incubated for 15 mins by indophenol method
// condition not met strictly below 20% in inhibition; condition met otherwise

> print(dat)
                                        mol                cat
1  CCCCCCCCn1c2ccc(C(C)=O)cc2c2cc(C(=O)/C=C/c3ccco3)ccc21      condition met
2  CCCCCCCCn1c2ccc(C(C)=O)cc2c2cc(C(=O)/C=C/c3ccc(Cl)cc3)ccc21      condition met
3  CCCCCCCCn1c2ccc(C(C)=O)cc2c2cc(C(=O)/C=C/c3cccc(OC)c3)ccc21  condition not met
4  CCCCCCCCn1c2ccc(C(C)=O)cc2c2cc(C(=O)/C=C/c3ccccc3Cl)ccc21      condition met
5  CCCCCCCCn1c2ccc(C(C)=O)cc2c2cc(C(=O)/C=C/c3ccc(Br)cc3)ccc21      condition met
